Values from PubChem BioAssay AID1159580

protocol_details: chemical genetic growth profiling, strain panel (AID 1159580);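 further: tested at 20 µM; growth read once vehicle control cultures reached saturation at 30 °C; 1 = growth at the plate median or of vehicle wells; lower values mean less growth of the strain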
measurement_context: S. cerevisiae deletion strains, growth OD, locus YNL307C, strain MCK1, hits give low values
Hit rate of the full screen: of about 5,500 compounds, about 2,000 (36%) were called active. Roughly 18% stayed inconclusive and do not appear here. This is one part of the list.
Each record here notes measured normalized growth.
test_readout: normalized growth

INSERT INTO assay_data (compound, test_readout, test_value) VALUES
  ('CCN(CC)CCOC(=O)c1ccc(N)cc1', 'normalized growth', 0.986),
  ('O=c1cc[nH]c(=S)[nH]1', 'normalized growth', 1.01),
  ('COc1cc([C@@H]2c3cc4c(c(O)c3C[C@H]3COC(=O)[C@@H]32)OCO4)cc(OC)c1OC', 'normalized growth', 0.992),
  ('COc1ccc2c(c1OC)C(=O)OC2[C@H]1c2c(cc3c(c2OC)OCO3)CCN1C (some centres not stated)', 'normalized growth', 0.987),
  ('COC(=O)C1=CCCN(C)C1', 'normalized growth', 0.996),
  ('C=C1C(C)C2C(Cc3ccccc3)NC(=O)C23OC(=O)/C=C/C(O)CCCC(C)C/C=C/C3C1O (configuration not stated)', 'normalized growth', 1.01),
  ('CC1OC1P(=O)(O)O (configuration not stated)', 'normalized growth', 0.98),
  ('CCCC(=O)O[C@]1(C(=O)CO)CCC2[C@@H]3CCC4=CC(=O)CC[C@]4(C)C3[C@@H](O)C[C@@]21C (some centres not stated)', 'normalized growth', 0.982),
  ('COC(=O)C[C@H]1C(C)(C)C(=O)[C@@H]2CC3=C(CC[C@]4(C)C3=CC(=O)O[C@H]4c3ccoc3)[C@@]1(C)C2=O', 'normalized growth', 1.02),
  ('CC1(C)O[C@@H]2CC3C4CCC5=CC(=O)CCC5(C)C4(F)C(O)CC3(C)[C@]2(C(=O)CCl)O1 (some centres not stated)', 'normalized growth', 0.995),
  ('COC(=O)[C@@H]1OC(=O)[C@H]2O[C@@]23[C@@]1(C)CCC1[C@@]2(C)CCC(=O)C(C)(C)C2C[C@@H](OC(C)=O)[C@]13C (some centres not stated)', 'normalized growth', 1.02),
  ('O=C1NC(=O)C(=O)C(=O)N1', 'normalized growth', 1.01),
  ('CCC(C)c1cnc(CC(C)C)c(=O)n1O (configuration not stated)', 'normalized growth', 1.02),
  ('Nc1ccn(C2O[C@H](CO)[C@@H](O)[C@@H]2O)c(=O)n1 (some centres not stated)', 'normalized growth', 0.997),
  ('CC(C)NNC(=O)c1ccncc1', 'normalized growth', 1.02),
  ('O=C(O)CN1C(=O)c2cccc3cccc(c23)C1=O', 'normalized growth', 0.994),
  ('Nc1nc2ncc(=O)[nH]c2c(=O)[nH]1', 'normalized growth', 0.991);

* * *

protocol_details: chemical genetic growth profiling, strain panel (AID 1159580)
measurement_context: S. cerevisiae deletion strains, growth OD, locus YML032C, strain rad52
About 2,000 (36%) of roughly 5,500 compounds were called active. About 18% were inconclusive and are not listed. Cut-off read from the data, not from the text of the source: active = normalized growth mostly below about 0.91 (no sharp cut-off); inconclusive = no clear call, values can overlap the other calls; inactive = mostly above about 0.92. The list shows a part of the results.
Outcomes: active, inactive

INSERT INTO measurements (compound, assigned_label) VALUES
  ('CC(C)COCC(CN(Cc1ccccc1)c1ccccc1)N1CCCC1 (stereo not given)', 'active'),
  ('COc1cc([C@@H]2c3cc4c(c(O)c3C[C@H]3COC(=O)[C@@H]32)OCO4)cc(OC)c1OC', 'inactive'),
  ('COc1ccc2c(c1OC)C(=O)OC2[C@H]1c2c(cc3c(c2OC)OCO3)CCN1C (stereo not given in full)', 'inactive'),
  ('COc1ccc2c(c1)O[C@H]1c3ccc(OC)cc3OC[C@@H]21', 'active'),
  ('COc1ccc2c(c1O)OCC1c3cc4c(cc3OC21)OCO4 (stereo not given)', 'inactive');

* * *

protocol_details: chemical genetic growth profiling, strain panel (AID 1159580);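 further: tested at 20 µM; growth read once vehicle control cultures reached saturation at 30 °C; 1 = growth at the plate median or of vehicle wells; lower values mean less growth of the strain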
measurement_context: S. cerevisiae deletion strains, growth OD, locus YDR159W, strain sac3, hits give low values
About 2,000 (36%) of roughly 5,500 compounds were called active. Roughly 18% stayed inconclusive and do not appear here. The list shows a part of the results.
Please respond with true (1) when measured normalized growth is strictly beneath 1, and with false (0) in all other cases.

INSERT INTO assay_data (compound, assigned_label) VALUES
  ('CO[C@@]1(NC(=O)CSCC#N)C(=O)N2C(C(=O)O)=C(CSc3nnnn3C)CSC21 (some centres not stated)', 'true (1)'),
  ('C=C1CCC(C2CC(=O)OC2=O)C(=O)CCC2C1CC2(C)C (configuration not stated)', 'true (1)'),
  ('CC[N+](CC)(CC)CCOc1cccc(OCC[N+](CC)(CC)CC)c1OCC[N+](CC)(CC)CC', 'true (1)'),
  ('CCN(CC)CCOC(=O)c1ccc(N)cc1', 'true (1)'),
  ('C=C1CCC2C(CC2(C)C)C(=O)CCC1O (configuration not stated)', 'false (0)'),
  ('O=S1OCC2C(CO1)C1(Cl)C(Cl)=C(Cl)C2(Cl)C1(Cl)Cl (configuration not stated)', 'true (1)'),
  ('CC1(C)O[C@H]2[C@H](O)C[C@](O)(C(N)=O)C[C@H]2O1', 'false (0)'),
  ('N[C@@H](CC(=O)N1CCn2c(nnc2C(F)(F)F)C1)Cc1cc(F)c(F)cc1F', 'true (1)'),
  ('CCCCC(=O)Oc1ccccc1C(=O)O', 'true (1)'),
  ('CC(C)C(=O)Nc1ccc([N+](=O)[O-])c(C(F)(F)F)c1', 'false (0)'),
  ('OCc1ccccc1O', 'false (0)'),
  ('O=c1cc(-c2ccccc2O)oc2cc(O)ccc12', 'true (1)'),
  ('CC(C)COCC(CN(Cc1ccccc1)c1ccccc1)N1CCCC1 (configuration not stated)', 'false (0)'),
  ('O=C(O)CN(CC(=O)O)Cc1cc2c(-c3ccccc3C(=O)O)c3cc(CN(CC(=O)O)CC(=O)O)c(=O)cc-3oc2cc1O', 'true (1)');

* * *

protocol_details: chemical genetic growth profiling, strain panel (AID 1159580);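 further: tested at 20 µM; growth read once vehicle control cultures reached saturation at 30 °C; 1 = growth at the plate median or of vehicle wells; lower values mean less growth of the strain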
measurement_context: S. cerevisiae deletion strains, growth OD, locus YJR016C, strain ILV3, hits give low values
Hit rate of the full screen: of about 5,500 compounds, about 2,000 (36%) were called active. Inconclusive results (about 18%) are left out. The list shows a part of the results.
test_readout: normalized growth

INSERT INTO results (compound, test_readout, test_value) VALUES
  ('Cc1c(C(=S)Nc2ccccc2)sc2ccccc12', 'normalized growth', 0.946),
  ('O=C(Nc1ccc(Cl)cc1)OCCSc1nc2ccccc2s1', 'normalized growth', 0.985),
  ('FC(F)(F)c1ccnc(N2CCCN(C(=S)Nc3ccc(Cl)cc3Cl)CC2)n1', 'normalized growth', 0.989),
  ('FC(F)(F)c1cccc(-n2c(CSCc3cccc4ccccc34)n[nH]c2=S)c1', 'normalized growth', 0.993),
  ('COC(=O)c1sccc1-c1ccc(/C=C/[N+](=O)[O-])o1', 'normalized growth', 0.974),
  ('O=C(NNc1ccc(I)cc1)c1cc(Cl)cc(Cl)c1', 'normalized growth', 0.971),
  ('O=C(/C=C/Sc1nc2ccccc2s1)c1ccc(Cl)cc1', 'normalized growth', 0.985),
  ('N#CC(C#N)=Cc1ccc(-c2ccccc2C(F)(F)F)o1', 'normalized growth', 0.95),
  ('O=C(Nc1ccc(OC(F)(F)F)cc1)N1CCN(c2nc(-c3ccccc3)ns2)CC1', 'normalized growth', 1),
  ('Cc1onc(-c2c(F)cccc2Cl)c1C(=O)NNc1cc(Cl)cc(Cl)c1', 'normalized growth', 0.988),
  ('CC1(C)OC(=O)C(=Cc2cccn2-c2ccc(C(F)(F)F)cc2)C(=O)O1', 'normalized growth', 1.01),
  ('CCCCCCCCCCCC(=O)NOC(=O)c1c(-c2c(Cl)cccc2Cl)noc1C', 'normalized growth', 0.984),
  ('O=C(Nc1ccc(OC(F)(F)F)cc1)OC1CN(C(c2ccccc2)c2ccccc2)C1', 'normalized growth', 1.01),
  ('OC(CN1CCN(c2nc3ccc(Cl)cc3s2)CC1)Cn1ccc2ccccc21 (centres undefined)', 'normalized growth', 0.991);

* * *

Entries and their normalized growth
protocol_details: chemical genetic growth profiling, strain panel (AID 1159580);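 further: tested at 20 µM; growth read once vehicle control cultures reached saturation at 30 °C; 1 = growth at the plate median or of vehicle wells; lower values mean less growth of the strain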
measurement_context: S. cerevisiae deletion strains, growth OD, locus YER133W, strain GLC7, hits give low values
Among all 5,500 compounds or so, about 2,000 (36%) were called active. About 18% were inconclusive and are not listed. The list shows a part of the results.
test_readout: normalized growth

INSERT INTO results (structure_as_smiles, test_readout, test_value) VALUES
  ('CCCCN(C)C(=O)c1cc([N+](=O)[O-])cc2c1-c1ccc([N+](=O)[O-])cc1C2=C(C#N)C#N', 'normalized growth', 0.984),
  ('Cc1cccc(NC(=S)NNC(=O)CSCc2cccc3ccccc23)c1', 'normalized growth', 0.906),
  ('O=C(NNc1ccc(I)cc1)c1cc(Cl)cc(Cl)c1', 'normalized growth', 0.909),
  ('Cc1nc(-c2ccc(S(=O)(=O)Nc3ccc(Br)cc3Cl)s2)cs1', 'normalized growth', 0.867);
